Assignment: determine reported pIC50 for the given compounds.
system: Neutrophil collagenase (Homo sapiens, UniProt P22894)
Sequence (P22894 whole entry): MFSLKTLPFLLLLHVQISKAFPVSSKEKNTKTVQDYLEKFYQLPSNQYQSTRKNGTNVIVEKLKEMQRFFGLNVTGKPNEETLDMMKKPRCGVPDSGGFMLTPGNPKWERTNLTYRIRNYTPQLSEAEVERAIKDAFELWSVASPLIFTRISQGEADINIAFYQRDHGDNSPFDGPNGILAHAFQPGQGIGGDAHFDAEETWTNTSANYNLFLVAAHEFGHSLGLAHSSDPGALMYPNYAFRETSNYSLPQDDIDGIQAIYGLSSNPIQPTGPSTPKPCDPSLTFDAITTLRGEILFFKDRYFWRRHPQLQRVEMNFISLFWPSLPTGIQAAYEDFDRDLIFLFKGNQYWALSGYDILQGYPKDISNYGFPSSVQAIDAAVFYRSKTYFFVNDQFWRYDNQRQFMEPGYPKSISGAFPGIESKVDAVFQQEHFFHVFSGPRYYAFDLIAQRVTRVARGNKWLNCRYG
test: Inhibition of human recombinant MMP-8 after 45 mins by fluorogenic assay
The value called pIC50 is obtained by taking minus log10 of the concentration in mol/L.

Under Neutrophil collagenase (Homo sapiens, UniProt P22894): report pIC50 of `O=C1NC(=O)C(c2ccc(Oc3ccccc3)cc2)(N2CCCN(C(=O)CCCCCCCCCCCCCCC(=O)N3CCCN(C4(c5ccc(Oc6ccccc6)cc5)C(=O)NC(=O)NC4=O)CC3)CC2)C(=O)N1` . 6.55

Under Neutrophil collagenase (Homo sapiens, UniProt P22894): report pIC50 of `O=C1NC(=O)C(c2ccc(Oc3ccccc3)cc2)(N2CCCN(C(=O)CCCCCCCCC(=O)N3CCCN(C4(c5ccc(Oc6ccccc6)cc5)C(=O)NC(=O)NC4=O)CC3)CC2)C(=O)N1` . 7.04

Under Neutrophil collagenase (Homo sapiens, UniProt P22894): report pIC50 of `O=C1NC(=O)C(c2ccc(Oc3ccccc3)cc2)(N2CCCN(C(=O)CCCCCC(=O)N3CCCN(C4(c5ccc(Oc6ccccc6)cc5)C(=O)NC(=O)NC4=O)CC3)CC2)C(=O)N1` . 6.93

Under Neutrophil collagenase (Homo sapiens, UniProt P22894): report pIC50 of `O=C1NC(=O)C(c2ccc(Oc3ccccc3)cc2)(N2CCCN(C(=O)c3ccc(C(=O)N4CCCN(C5(c6ccc(Oc7ccccc7)cc6)C(=O)NC(=O)NC5=O)CC4)cc3)CC2)C(=O)N1` . 7.34

Under Neutrophil collagenase (Homo sapiens, UniProt P22894): report pIC50 of `O=C1NC(=O)C(c2ccc(Oc3ccccc3)cc2)(N2CCCN(C(=O)CCCCCCCCCCC(=O)N3CCCN(C4(c5ccc(Oc6ccccc6)cc5)C(=O)NC(=O)NC4=O)CC3)CC2)C(=O)N1` . 6.90

Under Neutrophil collagenase (Homo sapiens, UniProt P22894): report pIC50 of `O=C1NC(=O)C(c2ccc(Oc3ccccc3)cc2)(N2CCCN(C(=O)CCCCC(=O)N3CCCN(C4(c5ccc(Oc6ccccc6)cc5)C(=O)NC(=O)NC4=O)CC3)CC2)C(=O)N1` . 7.22

Under Neutrophil collagenase (Homo sapiens, UniProt P22894): report pIC50 of `O=C1NC(=O)C(c2ccc(Oc3ccccc3)cc2)(N2CCCN(C(=O)CCCCCCCCCCCCCCCCCCCCC(=O)N3CCCN(C4(c5ccc(Oc6ccccc6)cc5)C(=O)NC(=O)NC4=O)CC3)CC2)C(=O)N1` . 6.79

====

test: Metabolic stability in human duodenal fluid assessed as compound remaining at 6 hrs
Assay type: ADME
stated-conditions: read-out: Stability
assay-endpoint: remaining at 6 h

Hello, please tell me recorded remaining at 6 h for this one: `O=C1NC(=O)C(c2ccc(Oc3ccccc3)cc2)(N2CCCN(C(=O)CCCC(=O)N3CCCN(C4(c5ccc(Oc6ccccc6)cc5)C(=O)NC(=O)NC4=O)CC3)CC2)C(=O)N1` > 50%

====

system: Collagenase 3 (Homo sapiens)
test: Inhibition of human recombinant MMP-13 after 45 mins by fluorogenic assay
Assignment: determine reported IC50 for the given molecules.
Express the result in nM but write the number alone.

Hello, please tell me recorded IC50 for this one: `O=C1NC(=O)C(c2ccc(Oc3ccccc3)cc2)(N2CCCN(C(=O)CCCCCCC(=O)N3CCCN(C4(c5ccc(Oc6ccccc6)cc5)C(=O)NC(=O)NC4=O)CC3)CC2)C(=O)N1` 155

Hello, please tell me recorded IC50 for this one: `O=C1NC(=O)C(c2ccc(Oc3ccccc3)cc2)(N2CCCN(C(=O)c3ccc(C(=O)N4CCCN(C5(c6ccc(Oc7ccccc7)cc6)C(=O)NC(=O)NC5=O)CC4)cc3)CC2)C(=O)N1` 23

Hello, please tell me recorded IC50 for this one: `O=C1NC(=O)C(c2ccc(Oc3ccccc3)cc2)(N2CCCN(C(=O)CCCCCCCCCCCCC(=O)N3CCCN(C4(c5ccc(Oc6ccccc6)cc5)C(=O)NC(=O)NC4=O)CC3)CC2)C(=O)N1` 70

Hello, please tell me recorded IC50 for this one: `O=C1NC(=O)C(c2ccc(Oc3ccccc3)cc2)(N2CCCN(C(=O)CCCCCCCC(=O)N3CCCN(C4(c5ccc(Oc6ccccc6)cc5)C(=O)NC(=O)NC4=O)CC3)CC2)C(=O)N1` 44

Hello, please tell me recorded IC50 for this one: `O=C1NC(=O)C(c2ccc(Oc3ccccc3)cc2)(N2CCCN(C(=O)CCCCCCCCCCC(=O)N3CCCN(C4(c5ccc(Oc6ccccc6)cc5)C(=O)NC(=O)NC4=O)CC3)CC2)C(=O)N1` 104

Hello, please tell me recorded IC50 for this one: `O=C1NC(=O)C(c2ccc(Oc3ccccc3)cc2)(N2CCCN(C(=O)CCCCCCCCCCCCCCCCCCCCC(=O)N3CCCN(C4(c5ccc(Oc6ccccc6)cc5)C(=O)NC(=O)NC4=O)CC3)CC2)C(=O)N1` 225

Hello, please tell me recorded IC50 for this one: `O=C1NC(=O)C(c2ccc(Oc3ccccc3)cc2)(N2CCCN(C(=O)CCC(=O)N3CCCN(C4(c5ccc(Oc6ccccc6)cc5)C(=O)NC(=O)NC4=O)CC3)CC2)C(=O)N1` 11

Hello, please tell me recorded IC50 for this one: `O=C1NC(=O)C(c2ccc(Oc3ccccc3)cc2)(N2CCCN(C(=O)CCCCCCCCC(=O)N3CCCN(C4(c5ccc(Oc6ccccc6)cc5)C(=O)NC(=O)NC4=O)CC3)CC2)C(=O)N1` 106

Hello, please tell me recorded IC50 for this one: `O=C1NC(=O)C(c2ccc(Oc3ccccc3)cc2)(N2CCCN(C(=O)CCCCCCCCCCCCCCC(=O)N3CCCN(C4(c5ccc(Oc6ccccc6)cc5)C(=O)NC(=O)NC4=O)CC3)CC2)C(=O)N1` 134

Hello, please tell me recorded IC50 for this one: `O=C1NC(=O)C(c2ccc(Oc3ccccc3)cc2)(N2CCCN(C(=O)CCCCCC(=O)N3CCCN(C4(c5ccc(Oc6ccccc6)cc5)C(=O)NC(=O)NC4=O)CC3)CC2)C(=O)N1` 648

Hello, please tell me recorded IC50 for this one: `O=C1NC(=O)C(c2ccc(Oc3ccccc3)cc2)(N2CCCN(C(=O)CCCC(=O)N3CCCN(C4(c5ccc(Oc6ccccc6)cc5)C(=O)NC(=O)NC4=O)CC3)CC2)C(=O)N1` 164

Hello, please tell me recorded IC50 for this one: `O=C1NC(=O)C(c2ccc(Oc3ccccc3)cc2)(N2CCCN(C(=O)CCCCC(=O)N3CCCN(C4(c5ccc(Oc6ccccc6)cc5)C(=O)NC(=O)NC4=O)CC3)CC2)C(=O)N1` 23
